- Experimental Target: HDAC8 (Homo sapiens)
- Sequence (Q9BY41 1-377): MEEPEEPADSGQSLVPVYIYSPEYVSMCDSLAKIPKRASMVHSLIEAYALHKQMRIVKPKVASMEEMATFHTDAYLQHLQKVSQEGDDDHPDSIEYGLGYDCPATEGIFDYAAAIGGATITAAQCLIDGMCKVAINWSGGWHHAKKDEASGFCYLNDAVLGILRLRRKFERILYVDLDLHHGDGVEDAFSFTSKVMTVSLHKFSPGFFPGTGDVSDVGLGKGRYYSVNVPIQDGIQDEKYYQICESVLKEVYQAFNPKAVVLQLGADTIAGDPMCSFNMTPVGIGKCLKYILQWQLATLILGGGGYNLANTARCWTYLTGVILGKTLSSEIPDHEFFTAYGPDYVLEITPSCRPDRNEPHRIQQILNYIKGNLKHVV
- Method Description: Two-step fluorescence assay for determination of IC50
- Type: biochemical
- Assay Conditions: ε-acetylated lysine substrate, trypsin release of 7-amino-4-methylcoumarin; four parameter fit; read-out: IC50 values HDAC8
- Method: In order to evaluate the inhibitory characteristics of example compounds of the invention, IC50 values were determined for such compounds. […] A two-step assay was used for this purpose. To obtain the IC50 value for an individual compound/HDAC pair, a two-step assay can be performed based on a fluorescence signal. In principle, an ε-acetylated lysine substrate is deacetylated by histone-deacetylases in the first step. […]
Quantity Name: pIC50
// returns pIC50 (minus log10 of molar concentration), number only

The examples below pair each entry with its known result.
smiles_entry=O=C(NO)C(F)(F)C(F)(F)C(F)(F)C(F)(F)C(F)(F)C(F)(F)C(=O)Nc1nc(-c2ccccc2)cs1 number=5.68
smiles_entry=CCc1cccc(NC(=O)C(F)(F)C(F)(F)C(F)(F)C(F)(F)C(F)(F)C(F)(F)C(=O)NO)c1 number=4.67
smiles_entry=O=C(NO)C(F)(F)C(F)(F)C(F)(F)C(F)(F)C(F)(F)C(F)(F)C(=O)Nc1ccc(I)cc1 number=4.12
smiles_entry=O=C(NO)C(F)(F)C(F)(F)C(F)(F)C(F)(F)C(F)(F)C(F)(F)C(=O)Nc1ccc(Cl)cc1 number=4.14
smiles_entry=N#Cc1ccc(NC(=O)C(F)(F)C(F)(F)C(F)(F)C(F)(F)C(F)(F)C(F)(F)C(=O)NO)cc1 number=4.13

Which value of pIC50 has been reported for Cc1ccc(NC(=O)C(F)(F)C(F)(F)C(F)(F)C(F)(F)C(F)(F)C(F)(F)C(=O)NO)cc1C in the records?
4.64

Which value of pIC50 has been reported for CC(=O)Nc1ccc(NC(=O)C(F)(F)C(F)(F)C(F)(F)C(F)(F)C(F)(F)C(F)(F)C(=O)NO)cc1 in the records?
4.12

---

A collection of compounds and their measured log10 IC50
- Experimental Target: UniProtKB Q13547
- Method Description: Two-step fluorescence assay for determination of IC50
- Format: biochemical
- Assay Conditions: ε-acetylated lysine substrate, trypsin release of 7-amino-4-methylcoumarin; four parameter fit; read-out: IC50 values HDAC1
Give log10 of IC50, with IC50 taken in µM.

compound="O=C(NO)C(F)(F)C(F)(F)C(F)(F)C(F)(F)C(F)(F)C(F)(F)C(=O)Nc1ccc(-c2ccccc2)cc1 [LU229]" number=1.58
compound="O=C(NO)C(F)(F)C(F)(F)C(F)(F)C(F)(F)C(F)(F)C(F)(F)C(=O)Nc1ccc(I)cc1 [LU227]" number=1.23
compound="O=C(NO)C(F)(F)C(F)(F)C(F)(F)C(F)(F)C(F)(F)C(F)(F)C(=O)Nc1ccc(Cl)cc1 [LU223]" number=1.18
compound="O=C(NO)C(F)(F)C(F)(F)C(F)(F)C(F)(F)C(F)(F)C(F)(F)C(=O)Nc1ccc(-c2cnnn2-c2ccccc2)cc1 [LU236]" number=1.92
compound="O=C(NO)C(F)(F)C(F)(F)C(F)(F)C(F)(F)C(F)(F)C(F)(F)C(=O)Nc1nc(-c2ccccc2)cs1 [LU235]" number=0.52

Which value of log10 IC50 has been reported for Cc1ccc(NC(=O)C(F)(F)C(F)(F)C(F)(F)C(F)(F)C(F)(F)C(F)(F)C(=O)NO)cc1 [LU222] in the records?
1.21

Which value of log10 IC50 has been reported for N#Cc1ccc(NC(=O)C(F)(F)C(F)(F)C(F)(F)C(F)(F)C(F)(F)C(F)(F)C(=O)NO)cc1 [LU225 A] in the records?
1.34

---

- Experimental Target: HDAC1 (Homo sapiens, UniProt Q13547)
- Sequence (Q13547 whole entry): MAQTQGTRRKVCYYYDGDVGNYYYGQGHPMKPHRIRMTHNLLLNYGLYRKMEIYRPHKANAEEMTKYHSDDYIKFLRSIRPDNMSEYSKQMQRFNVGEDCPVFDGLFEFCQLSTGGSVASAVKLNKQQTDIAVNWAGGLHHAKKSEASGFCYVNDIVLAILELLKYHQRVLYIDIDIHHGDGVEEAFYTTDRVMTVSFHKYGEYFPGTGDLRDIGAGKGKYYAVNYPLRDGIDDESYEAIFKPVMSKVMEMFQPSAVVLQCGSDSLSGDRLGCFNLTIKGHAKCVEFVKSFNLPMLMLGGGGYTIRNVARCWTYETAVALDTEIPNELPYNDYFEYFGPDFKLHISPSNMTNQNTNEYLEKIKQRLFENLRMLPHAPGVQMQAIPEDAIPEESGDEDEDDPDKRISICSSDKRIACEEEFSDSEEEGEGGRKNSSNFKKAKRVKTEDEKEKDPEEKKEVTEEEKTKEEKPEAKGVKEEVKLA
- Method Description: Two-step fluorescence assay for determination of IC50
- Format: biochemical
- Assay Conditions: ε-acetylated lysine substrate, trypsin release of 7-amino-4-methylcoumarin; four parameter fit; read-out: IC50 values HDAC1
Quantity Name: IC50 (µM)
API: value field is a number in µM; no unit string.

molecule="CC(=O)Nc1ccc(NC(=O)C(F)(F)C(F)(F)C(F)(F)C(F)(F)C(F)(F)C(F)(F)C(=O)NO)cc1 [LU224]" experimental_target="HDAC1 (Homo sapiens, UniProt Q13547)" number=21.8

Lab note: next molecule to report on.
Which value of IC50 has been reported for O=C(NO)C(F)(F)C(F)(F)C(F)(F)C(F)(F)C(F)(F)C(F)(F)C(=O)Nc1ccc2ccc3cccc4ccc1c2c34 [LU234] in the records?
28.3

---

- Experimental Target: UniProtKB Q70I53
- Sequence (Q70I53 whole entry): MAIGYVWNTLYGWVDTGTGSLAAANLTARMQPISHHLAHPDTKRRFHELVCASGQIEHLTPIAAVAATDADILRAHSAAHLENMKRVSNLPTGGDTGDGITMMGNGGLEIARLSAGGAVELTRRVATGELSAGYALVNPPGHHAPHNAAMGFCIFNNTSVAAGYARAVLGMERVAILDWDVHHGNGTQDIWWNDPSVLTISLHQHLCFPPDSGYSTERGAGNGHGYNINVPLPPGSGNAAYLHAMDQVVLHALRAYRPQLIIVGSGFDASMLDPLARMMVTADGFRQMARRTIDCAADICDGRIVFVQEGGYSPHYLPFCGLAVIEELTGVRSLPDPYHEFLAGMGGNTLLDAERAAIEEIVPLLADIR
- Method Description: Two-step fluorescence assay for determination of IC50
- Type: biochemical
- Assay Conditions: HDAC-like amidohydrolase; ε-acetylated lysine substrate, trypsin release of 7-amino-4-methylcoumarin; four parameter fit; read-out: IC50 values HDAH
A collection of compounds and their measured pIC50
// returns pIC50 (minus log10 of molar concentration), number only

The examples below pair each entry with its known result.
smiles_entry=O=C(NO)C(F)(F)C(F)(F)C(F)(F)C(F)(F)C(F)(F)C(F)(F)C(=O)Nc1ccc2ccc3cccc4ccc1c2c34 quantity_name=pIC50 number=5.83
smiles_entry=O=C(NO)C(F)(F)C(F)(F)C(F)(F)C(F)(F)C(F)(F)C(F)(F)C(=O)Nc1ccc(-c2cn(-c3ccccc3)nn2)cc1 quantity_name=pIC50 number=4.77
smiles_entry=O=C(NO)C(F)(F)C(F)(F)C(F)(F)C(F)(F)C(F)(F)C(F)(F)C(=O)Nc1ccc(-c2ccccc2)cc1 quantity_name=pIC50 number=6.11

Lab note: next compound to report on.
Which value of pIC50 has been reported for O=C(NO)C(F)(F)C(F)(F)C(F)(F)C(F)(F)C(F)(F)C(F)(F)C(=O)Nc1ccc(I)cc1 in the records?
6.04

---

- Experimental Target: HDAC6 (Homo sapiens, UniProt Q9UBN7)
- Sequence (Q9UBN7 whole entry): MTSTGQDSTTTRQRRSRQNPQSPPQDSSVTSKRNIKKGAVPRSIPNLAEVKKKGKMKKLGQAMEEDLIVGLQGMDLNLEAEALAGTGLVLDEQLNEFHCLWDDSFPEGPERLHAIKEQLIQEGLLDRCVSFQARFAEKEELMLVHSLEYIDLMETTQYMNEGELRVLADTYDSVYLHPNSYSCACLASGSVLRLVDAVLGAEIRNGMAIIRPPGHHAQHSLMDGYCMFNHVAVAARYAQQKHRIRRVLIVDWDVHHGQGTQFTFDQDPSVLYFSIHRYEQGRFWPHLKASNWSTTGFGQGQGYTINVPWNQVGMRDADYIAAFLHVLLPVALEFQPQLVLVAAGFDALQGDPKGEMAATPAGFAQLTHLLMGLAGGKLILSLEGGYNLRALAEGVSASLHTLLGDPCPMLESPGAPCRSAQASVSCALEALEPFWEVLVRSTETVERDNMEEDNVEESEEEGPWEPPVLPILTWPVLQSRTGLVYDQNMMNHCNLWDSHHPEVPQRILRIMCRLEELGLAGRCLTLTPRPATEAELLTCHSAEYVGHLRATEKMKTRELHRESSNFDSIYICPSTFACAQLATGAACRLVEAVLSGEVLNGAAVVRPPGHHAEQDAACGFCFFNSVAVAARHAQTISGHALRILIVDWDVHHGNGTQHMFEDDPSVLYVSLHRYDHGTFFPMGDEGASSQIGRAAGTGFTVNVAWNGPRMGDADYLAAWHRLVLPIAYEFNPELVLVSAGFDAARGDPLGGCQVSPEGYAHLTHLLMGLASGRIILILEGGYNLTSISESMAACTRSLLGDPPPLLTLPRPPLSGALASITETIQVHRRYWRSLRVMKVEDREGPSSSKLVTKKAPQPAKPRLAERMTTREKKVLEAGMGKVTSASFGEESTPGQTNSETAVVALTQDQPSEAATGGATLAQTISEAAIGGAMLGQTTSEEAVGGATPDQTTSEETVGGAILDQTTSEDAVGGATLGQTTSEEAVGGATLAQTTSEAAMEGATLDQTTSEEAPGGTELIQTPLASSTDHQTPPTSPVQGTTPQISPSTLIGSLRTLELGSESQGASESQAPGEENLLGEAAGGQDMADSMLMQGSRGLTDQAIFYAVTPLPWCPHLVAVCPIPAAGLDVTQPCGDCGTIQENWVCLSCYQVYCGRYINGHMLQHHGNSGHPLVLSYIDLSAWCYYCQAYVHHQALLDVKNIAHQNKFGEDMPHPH
- Method Description: Two-step fluorescence assay for determination of IC50
- Assay type: biochemical
Quantity Name: pIC50
// returns pIC50 (minus log10 of molar concentration), number only

The examples below pair each entry with its known result.
compound="O=C(NO)C(F)(F)C(F)(F)C(F)(F)C(F)(F)C(F)(F)C(F)(F)C(=O)Nc1ccc(Cl)cc1 [LU223]" quantity_name=pIC50 number=4.58
compound="CCc1cccc(NC(=O)C(F)(F)C(F)(F)C(F)(F)C(F)(F)C(F)(F)C(F)(F)C(=O)NO)c1 [LU232]" quantity_name=pIC50 number=5.81

Item: O=C(NO)C1CCCCC1C(=O)Nc1ccccc1 (stereo not drawn) [RK216, reference compound] Test system: HDAC6 (Homo sapiens, UniProt Q9UBN7) Read-out: pIC50 Value: ?
4.36

---

- Experimental Target: UniProtKB Q70I53
- Method Description: Two-step fluorescence assay for determination of IC50
- Type: biochemical
A collection of compounds and their measured pIC50
// returns pIC50 (minus log10 of molar concentration), number only

The examples below pair each entry with its known result.
compound=N#Cc1ccc(NC(=O)C(F)(F)C(F)(F)C(F)(F)C(F)(F)C(F)(F)C(F)(F)C(=O)NO)cc1 experimental_target="UniProtKB Q70I53" number=6.15
compound="O=C(NO)C1CCCCC1C(=O)Nc1ccccc1 (stereo not drawn) [RK216, reference compound]" experimental_target="UniProtKB Q70I53" number=4.46

Item: O=C(NO)C(F)(F)C(F)(F)C(F)(F)C(F)(F)C(F)(F)C(F)(F)C(=O)Nc1ccc(Cl)cc1 Test system: UniProtKB Q70I53 Read-out: pIC50 Value: ?
6.14

---

- Experimental Target: HDAC6 (Homo sapiens, UniProt Q9UBN7)
- Method Description: Two-step fluorescence assay for determination of IC50
- Assay type: biochemical
- Assay Conditions: ε-acetylated lysine substrate, trypsin release of 7-amino-4-methylcoumarin; four parameter fit; read-out: IC50 values HDAC6
Quantity Name: IC50 (µM)
API: value field is a number in µM; no unit string.

smiles_entry=CC(=O)Nc1ccc(NC(=O)C(F)(F)C(F)(F)C(F)(F)C(F)(F)C(F)(F)C(F)(F)C(=O)NO)cc1 quantity_name=IC50 number=10.5
smiles_entry=O=C(NO)C(F)(F)C(F)(F)C(F)(F)C(F)(F)C(F)(F)C(F)(F)C(=O)Nc1ccc(I)cc1 quantity_name=IC50 number=5.13
smiles_entry=Cc1ccc(NC(=O)C(F)(F)C(F)(F)C(F)(F)C(F)(F)C(F)(F)C(F)(F)C(=O)NO)cc1C quantity_name=IC50 number=7.8

Which value of IC50 has been reported for O=C(NO)C(F)(F)C(F)(F)C(F)(F)C(F)(F)C(F)(F)C(F)(F)C(=O)Nc1ccc(-c2ccccc2)cc1 in the records?
59.1

Which value of IC50 has been reported for O=C(NO)C(F)(F)C(F)(F)C(F)(F)C(F)(F)C(F)(F)C(F)(F)C(=O)Nc1ccc(-c2cn(-c3ccccc3)nn2)cc1 in the records?
9.81

Which value of IC50 has been reported for O=C(NO)C(F)(F)C(F)(F)C(F)(F)C(F)(F)C(F)(F)C(F)(F)C(=O)Nc1ccc2ccc3cccc4ccc1c2c34 in the records?
20.2

Which value of IC50 has been reported for O=C(NO)C(F)(F)C(F)(F)C(F)(F)C(F)(F)C(F)(F)C(F)(F)C(=O)Nc1ccccc1 in the records?
12.5

Which value of IC50 has been reported for O=C(NO)C(F)(F)C(F)(F)C(F)(F)C(F)(F)C(F)(F)C(F)(F)C(=O)Nc1ccc(-c2cnnn2-c2ccccc2)cc1 in the records?
56.6

Which value of IC50 has been reported for O=C(NO)C(F)(F)C(F)(F)C(F)(F)C(F)(F)C(F)(F)C(F)(F)C(=O)Nc1nc(-c2ccccc2)cs1 in the records?
6.47
